Measured values drawn from PubChem BioAssay (NCATS) for this set.

- experimental_details: qHTS assay for cell viability of HEK293 cells (AID 743288); note: % is set by controls: 0 for no effect and ±100 for the full control effect; nearly all actives have a fitted effect of over 50% in size
- test_conditions: ATP luminescence (CellTiter-Glo), 18 h; active compounds read low
Inconclusive results are not listed.
reported_endpoint: max response (%)
// return numeric value only (unit: %, not printed)

Name the recorded max response for "C[C@]12CCC(=O)C(O)=C1CC[C@@H]1[C@@H]2CC[C@]2(C)C(=O)CC[C@@H]12" . -3.27

Name the recorded max response for "Cc1cc(SCc2sc(-c3ccc(C(F)(F)F)c(F)c3)nc2C)ccc1OCC(=O)O" . -13

Name the recorded max response for CNCC(O)c1ccc(O)cc1 (stereo unspecified) . -7.41

Name the recorded max response for "CC(C)(C)CC(C)(C)c1ccc(O)cc1" . -15.6

Name the recorded max response for O=c1oc2ccccc2c(O)c1C(CC(O)c1ccc(-c2ccc(Br)cc2)cc1)c1ccccc1 (stereo unspecified) . -5.59

Name the recorded max response for "Oc1cccc2cccnc12" . -19.7
